# SYSTEM_UNDER_TEST: recombinant human CK2 (Homo sapiens (Human))
# PROTOCOL_TEXT: CK2 assay (cell-free, 33P-ATP filter plate)
# Type: biochemical
# ASSAY_CONDITIONS: 500 nM compound, cell-free assay; read-out: CK2: % inh 500 nM
Please respond with reported inhibition at 0.5 µM for every item in the list.
Write the value in % as a bare number.

Query block: I am curious: what inhibition at 0.5 µM value has been reported for O=C(O)c1ccc2c(c1)nc(Nc1cccc(F)c1)c1cnccc12 ?
Result block: 35.8

Query block: I am curious: what inhibition at 0.5 µM value has been reported for N#Cc1ccc2c(c1)nc(N1CCC(N)C1)c1ccsc12 (stereo not shown) ?
Result block: -2.47

Query block: I am curious: what inhibition at 0.5 µM value has been reported for CCN1CCC[C@H]1CNc1nc2cc(-c3nnn[nH]3)ccc2c2sccc12 ?
Result block: 59.8

Query block: I am curious: what inhibition at 0.5 µM value has been reported for N#Cc1ccc2c(c1)nc(Oc1ccc(F)c(F)c1)c1ccsc12 ?
Result block: -9.99

* * *

# Test system: Jurkat
# PROTOCOL_TEXT: Cell proliferation modulatory activity, Jurkat
# Type: cell-based
# ASSAY_CONDITIONS: Homo sapiens
We label by threshold. Values of IC50 strictly beneath 1 µM are Yes. Values of 1 µM and up are No.

Query block: Take the compound O=C(NCc1ccccn1)c1ccc2c(c1)nc(NC1CC1)c1nc(NC3CC3)ncc12 and say whether its IC50 is less than 1 µM.
Result block: No

Query block: Take the compound CNc1ncc2c(n1)c(Nc1cccc(Cl)c1)nc1cc(C(=O)O)ccc12 and say whether its IC50 is less than 1 µM.
Result block: No

Query block: Take the compound COC(=O)c1ccc2c(c1)nc(N)c1nc(SC)ncc12 and say whether its IC50 is less than 1 µM.
Result block: No

Query block: Take the compound C#Cc1cccc(Nc2nc3cc(C(=O)O)ccc3c3cnc(NCCCOCC)nc23)c1 and say whether its IC50 is less than 1 µM.
Result block: Yes

Query block: Take the compound O=C(NC1CC1)c1ccc2c(c1)nc(NC1CC1)c1nc(NC3CC3)ncc12 and say whether its IC50 is less than 1 µM.
Result block: Yes

Query block: Take the compound NCCNC(=O)c1ccc2c(c1)nc(NC1CC1)c1nc(NC3CC3)ncc12 and say whether its IC50 is less than 1 µM.
Result block: No

Query block: Take the compound COC(=O)c1ccc2c(c1)nc(NC1CC1)c1nc(SC)ncc12 [drawing 1641] and say whether its IC50 is less than 1 µM.
Result block: No

* * *

# SYSTEM_UNDER_TEST: recombinant human CK2 (Homo sapiens (Human), UniProt P68400)
# Sequence (P68400 whole entry): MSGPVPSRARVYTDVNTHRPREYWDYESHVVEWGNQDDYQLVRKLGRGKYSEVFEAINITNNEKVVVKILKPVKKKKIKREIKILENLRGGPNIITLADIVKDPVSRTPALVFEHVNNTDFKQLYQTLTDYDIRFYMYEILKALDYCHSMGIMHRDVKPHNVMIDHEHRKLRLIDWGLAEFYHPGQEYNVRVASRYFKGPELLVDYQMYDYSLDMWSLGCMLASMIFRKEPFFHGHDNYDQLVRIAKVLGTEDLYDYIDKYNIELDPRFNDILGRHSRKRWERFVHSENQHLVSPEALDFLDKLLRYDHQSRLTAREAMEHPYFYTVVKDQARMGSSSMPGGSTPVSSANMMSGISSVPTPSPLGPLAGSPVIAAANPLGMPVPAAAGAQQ
# Sequence (P67870 whole entry partner): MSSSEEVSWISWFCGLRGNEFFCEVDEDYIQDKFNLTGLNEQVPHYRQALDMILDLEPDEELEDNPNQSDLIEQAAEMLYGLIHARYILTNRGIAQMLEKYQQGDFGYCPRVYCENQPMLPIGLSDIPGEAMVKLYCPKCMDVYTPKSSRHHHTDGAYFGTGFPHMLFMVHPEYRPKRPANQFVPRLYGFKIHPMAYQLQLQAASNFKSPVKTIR
# PROTOCOL_TEXT: CK2 assay (cell-free, 33P-ATP filter plate)
# Format: biochemical
# ASSAY_CONDITIONS: 500 nM compound, cell-free assay; read-out: CK2: % inh 500 nM
READOUT_TYPE: inhibition at 0.5 µM (%)
Write the value in % as a bare number.

Query block: Request - read-out inhibition at 0.5 µM | tested on recombinant human CK2 (Homo sapiens (Human), UniProt P68400) | molecule O=C(O)c1ccc2c(c1)nc(Nc1ccccc1Cl)c1ccncc12
Result block: 97.3

Query block: Request - read-out inhibition at 0.5 µM | tested on recombinant human CK2 (Homo sapiens (Human), UniProt P68400) | molecule NNC(=O)c1ccc2c(c1)nc(Nc1cccc(Cl)c1)c1ccncc12
Result block: 34.9

Query block: Request - read-out inhibition at 0.5 µM | tested on recombinant human CK2 (Homo sapiens (Human), UniProt P68400) | molecule O=C(O)c1ccc2c(c1)nc(NC1CCCCC1)c1ccncc12
Result block: 95.8

Query block: Request - read-out inhibition at 0.5 µM | tested on recombinant human CK2 (Homo sapiens (Human), UniProt P68400) | molecule O=C(O)c1ccc2c(c1)nc(Nc1cccc3ccccc13)c1ccncc12
Result block: 93.1

Query block: Request - read-out inhibition at 0.5 µM | tested on recombinant human CK2 (Homo sapiens (Human), UniProt P68400) | molecule Fc1cccc(Nc2nc3cc(-c4nnn[nH]4)ccc3c3cscc23)c1
Result block: 52.6

Query block: Request - read-out inhibition at 0.5 µM | tested on recombinant human CK2 (Homo sapiens (Human), UniProt P68400) | molecule CN(C)CCNc1nc2cc(C(N)=O)ccc2c2sccc12
Result block: 15.6

Query block: Request - read-out inhibition at 0.5 µM | tested on recombinant human CK2 (Homo sapiens (Human), UniProt P68400) | molecule NC(=O)c1ccc(Nc2nc3cc(C(=O)O)ccc3c3cnccc23)cc1
Result block: -5.09

* * *

UniProt:Q9P1W9: recorded IC50 for assorted compounds
Sequence (Q9P1W9 whole entry): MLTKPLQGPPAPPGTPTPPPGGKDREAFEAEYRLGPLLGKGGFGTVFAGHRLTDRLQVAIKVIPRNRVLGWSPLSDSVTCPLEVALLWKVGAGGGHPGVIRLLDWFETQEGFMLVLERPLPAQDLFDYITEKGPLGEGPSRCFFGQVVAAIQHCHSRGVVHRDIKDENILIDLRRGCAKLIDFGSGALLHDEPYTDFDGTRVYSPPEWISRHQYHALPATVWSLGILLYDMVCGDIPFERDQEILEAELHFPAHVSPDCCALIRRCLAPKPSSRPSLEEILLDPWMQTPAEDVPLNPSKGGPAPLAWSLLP

Query block: I am curious: what IC50 value has been reported for Cc1ccc(F)cc1Nc1nc2c(-c3nnc[nH]3)cccc2c2cnccc12 ?
Result block: < 0.1 µM

Query block: I am curious: what IC50 value has been reported for COCCOc1ccc(Nc2nc3c(-c4nnc[nH]4)cccc3c3cnccc23)cc1 ?
Result block: < 1 µM

Query block: I am curious: what IC50 value has been reported for COc1ccc(Nc2nc3c(-c4nc[nH]n4)cccc3c3cnccc23)cc1 ?
Result block: < 0.1 µM

Query block: I am curious: what IC50 value has been reported for N#Cc1cccc(Nc2nc3c(-c4nc[nH]n4)cccc3c3cnccc23)c1 ?
Result block: > 1.1 µM

Query block: I am curious: what IC50 value has been reported for Fc1cc(-c2nnc[nH]2)c2nc(Nc3cccc(Cl)c3)c3ccncc3c2c1 [drawing 2269] ?
Result block: > 1.1 µM

Query block: I am curious: what IC50 value has been reported for Clc1ccc(Nc2nc3c(-c4nc[nH]n4)cccc3c3cnccc23)cc1 ?
Result block: < 0.5 µM

* * *

# SYSTEM_UNDER_TEST: recombinant human PIM1 (Homo sapiens (Human))
# Sequence (P11309 whole entry): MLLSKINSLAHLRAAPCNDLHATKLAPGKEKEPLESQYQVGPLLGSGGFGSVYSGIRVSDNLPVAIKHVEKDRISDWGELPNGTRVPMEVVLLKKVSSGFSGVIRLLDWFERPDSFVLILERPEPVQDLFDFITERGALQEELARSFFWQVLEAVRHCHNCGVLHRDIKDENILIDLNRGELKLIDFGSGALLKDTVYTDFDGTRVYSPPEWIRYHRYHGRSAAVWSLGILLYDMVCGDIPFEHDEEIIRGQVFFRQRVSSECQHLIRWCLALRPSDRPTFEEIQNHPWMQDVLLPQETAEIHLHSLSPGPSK
# PROTOCOL_TEXT: PIM-1 kinase activity in cell-free in vitro assay
# Type: biochemical
# ASSAY_CONDITIONS: 500 nM compound, cell-free assay; read-out: PIM-1: % inh 500 nM
READOUT_TYPE: inhibition at 0.5 µM

Query block: I am curious: what inhibition at 0.5 µM value has been reported for CCCNc1nc2cc(-c3nnn[nH]3)ccc2c2sccc12 ?
Result block: 59.1%

Query block: I am curious: what inhibition at 0.5 µM value has been reported for CN(C)CCCN(C)c1nc2cc(C#N)ccc2c2sccc12 ?
Result block: 15.3%

Query block: I am curious: what inhibition at 0.5 µM value has been reported for CN1CCN(c2nc3cc(C(=O)O)ccc3c3cnccc23)CC1 ?
Result block: 40.1%

Query block: I am curious: what inhibition at 0.5 µM value has been reported for N#Cc1ccc2c(c1)nc(Nc1cccc(C(F)(F)F)c1)c1cscc12 ?
Result block: -33.2%

Query block: I am curious: what inhibition at 0.5 µM value has been reported for COC(C)(C)CNc1nc2cc(C#N)ccc2c2sccc12 ?
Result block: -30%

* * *

# SYSTEM_UNDER_TEST: recombinant human CK2 (Homo sapiens (Human))
# PROTOCOL_TEXT: CK2 assay (cell-free, 33P-ATP filter plate)
# Assay type: biochemical
# ASSAY_CONDITIONS: 10 uM; read-out: CK2 % inhib @ 10 uM
READOUT_TYPE: inhibition at 10 µM (%)
Write the value in % as a bare number.

Query block: Request - read-out inhibition at 10 µM | tested on recombinant human CK2 (Homo sapiens (Human)) | compound O=C(Nc1ccc(CN2CCS(=O)(=O)CC2)cc1)c1ccc2c(c1)[nH]c(=O)c1ccsc12
Result block: -1

Query block: Request - read-out inhibition at 10 µM | tested on recombinant human CK2 (Homo sapiens (Human)) | compound O=C(Nc1ccccc1)c1ccc2c(c1)[nH]c(=O)c1ccsc12
Result block: 22

Query block: Request - read-out inhibition at 10 µM | tested on recombinant human CK2 (Homo sapiens (Human)) | compound CCCNC(=O)c1ccc2c(c1)[nH]c(=O)c1ccsc12
Result block: -34

Query block: Request - read-out inhibition at 10 µM | tested on recombinant human CK2 (Homo sapiens (Human)) | compound CN(C)C(=O)c1ccc2c(c1)[nH]c(=O)c1ccsc12
Result block: 3

Query block: Request - read-out inhibition at 10 µM | tested on recombinant human CK2 (Homo sapiens (Human)) | compound O=C(NCCN1CCOCC1)c1ccc2c(c1)[nH]c(=O)c1ccsc12
Result block: -9

Query block: Request - read-out inhibition at 10 µM | tested on recombinant human CK2 (Homo sapiens (Human)) | compound O=C(NCCc1ccccc1)c1ccc2c(c1)[nH]c(=O)c1ccsc12
Result block: 1

Query block: Request - read-out inhibition at 10 µM | tested on recombinant human CK2 (Homo sapiens (Human)) | compound Cc1cc(CNC(=O)c2ccc3c(c2)[nH]c(=O)c2ccsc23)no1
Result block: -13

Query block: Request - read-out inhibition at 10 µM | tested on recombinant human CK2 (Homo sapiens (Human)) | compound O=C(NCc1cccnc1)c1ccc2c(c1)[nH]c(=O)c1ccsc12
Result block: -24

Query block: Request - read-out inhibition at 10 µM | tested on recombinant human CK2 (Homo sapiens (Human)) | compound O=c1[nH]c2cc(CO)ccc2c2sccc12
Result block: 3

Query block: Request - read-out inhibition at 10 µM | tested on recombinant human CK2 (Homo sapiens (Human)) | compound CC(C)(C)OC(=O)CCNC(=O)c1ccc2c(c1)[nH]c(=O)c1ccsc12
Result block: 8

Query block: Request - read-out inhibition at 10 µM | tested on recombinant human CK2 (Homo sapiens (Human)) | compound O=C(Nc1ccccc1C(=O)O)c1ccc2c(c1)[nH]c(=O)c1ccsc12
Result block: 41

Query block: Request - read-out inhibition at 10 µM | tested on recombinant human CK2 (Homo sapiens (Human)) | compound O=C(NCc1ccccn1)c1ccc2c(c1)[nH]c(=O)c1ccsc12
Result block: 3

Query block: Request - read-out inhibition at 10 µM | tested on recombinant human CK2 (Homo sapiens (Human)) | compound O=C(NCCc1ccccn1)c1ccc2c(c1)[nH]c(=O)c1ccsc12
Result block: -24

Query block: Request - read-out inhibition at 10 µM | tested on recombinant human CK2 (Homo sapiens (Human)) | compound COc1ccccc1CNC(=O)c1ccc2c(c1)[nH]c(=O)c1ccsc12
Result block: 8

Query block: Request - read-out inhibition at 10 µM | tested on recombinant human CK2 (Homo sapiens (Human)) | compound O=C(NCCc1cnc[nH]1)c1ccc2c(c1)[nH]c(=O)c1ccsc12
Result block: 7

Query block: Request - read-out inhibition at 10 µM | tested on recombinant human CK2 (Homo sapiens (Human)) | compound COCCNC(=O)c1ccc2c(c1)[nH]c(=O)c1ccsc12
Result block: -19
